src = patent US11261193B2

- experiment: Solubility estimate by aliquot addition with visual observation
- Assay type: physicochemical
- assay conditions: thermodynamic from solid; Water, ambient; read-out: Solubility
measured quantity: solubility

Name the recorded solubility for CC(C)N1CCN(c2ccc(Nc3ncc4cc5n(c4n3)C3(CCCCC3)CNC5=O)nc2)CC1 [Impure Form B] .
< 7000 µg/mL

###

- experiment: Solubility estimate by aliquot addition with visual observation
- Format: physicochemical
- assay conditions: organic solvent or mixture, thermodynamic from solid; 0.1M HCl:acetone 20:80, ambient; read-out: Solubility
measured quantity: solubility

Consider the compound CC(C)N1CCN(c2ccc(Nc3ncc4cc5n(c4n3)C3(CCCCC3)CNC5=O)nc2)CC1 [Impure Form B] and give its measured solubility.
< 1000 µg/mL

###

- experiment: Solubility estimate by aliquot addition with visual observation
- Type: physicochemical
- assay conditions: aqueous with cosolvent or surfactant or cyclodextrin, thermodynamic from solid; 1.0M HCl:acetone 75:25, ambient; read-out: Solubility
- Description: Solubility estimates of impure Form B were attempted in various predominantly HCl acidic aqueous acetone solvent mixtures using an aliquot addition method that involved visual observation. Aliquots of various solvents or diluent/organic solvent mixtures were added to measured amounts of impure Form B with agitation (typically sonication) at ambient temperature until complete dissolution was achieved, as judged by visual observation. […]
measured quantity: solubility
Kindly format the answer as number then unit.

Fill blank: measured solubility of the compound CC(C)N1CCN(c2ccc(Nc3ncc4cc5n(c4n3)C3(CCCCC3)CNC5=O)nc2)CC1 [Impure Form B] is ____.
7000 µg/mL

###

- experiment: Solubility estimate by aliquot addition with visual observation
- Type: physicochemical
- assay conditions: organic solvent or mixture, thermodynamic from solid; 1M HCl:acetone 10:90, ambient; read-out: Solubility
measured quantity: solubility

Find the recorded solubility belonging to CC(C)N1CCN(c2ccc(Nc3ncc4cc5n(c4n3)C3(CCCCC3)CNC5=O)nc2)CC1 [Impure Form B] and report it.
< 1000 µg/mL

###

- experiment: Solubility estimate by aliquot addition with visual observation
- Assay type: physicochemical
- assay conditions: organic solvent or mixture, thermodynamic from solid; 1M HCl:acetone 5:95, ambient; read-out: Solubility
measured quantity: solubility

Look at this molecule and give its reported solubility. CC(C)N1CCN(c2ccc(Nc3ncc4cc5n(c4n3)C3(CCCCC3)CNC5=O)nc2)CC1 [Impure Form B]
< 1000 µg/mL

###

- experiment: Solubility estimate by aliquot addition with visual observation
- Assay type: physicochemical
- assay conditions: organic solvent or mixture, thermodynamic from solid; 1M HCl:acetone 20:80, ambient; read-out: Solubility
measured quantity: solubility

Suppose we examine the compound CC(C)N1CCN(c2ccc(Nc3ncc4cc5n(c4n3)C3(CCCCC3)CNC5=O)nc2)CC1 [Impure Form B] ; what solubility value has been reported?
< 1000 µg/mL

###

- experiment: Solubility estimate by aliquot addition with visual observation
- Type: physicochemical
- assay conditions: aqueous with cosolvent or surfactant or cyclodextrin, thermodynamic from solid; 1M HCl:acetone 67:33, ambient; read-out: Solubility
measured quantity: solubility (µg/mL)
A number alone suffices; assume µg/mL.

Fill in the blank: the reported solubility of CC(C)N1CCN(c2ccc(Nc3ncc4cc5n(c4n3)C3(CCCCC3)CNC5=O)nc2)CC1 [Impure Form B] is ____.
6000

###

- experiment: Solubility estimate by aliquot addition with visual observation
- Type: physicochemical
- assay conditions: aqueous buffer, thermodynamic from solid; 5.0M HCl:water 1:2, ambient; read-out: Solubility
measured quantity: solubility
Note: state the figure and append the unit.

Recorded solubility of CC(C)N1CCN(c2ccc(Nc3ncc4cc5n(c4n3)C3(CCCCC3)CNC5=O)nc2)CC1 [Impure Form B] , please.
7000 µg/mL
